In this section, each of the sequences is paired with its reported protein stability index.
# Tested on: Saccharomyces cerevisiae
# procedure-text: protein stability index of tFT-peptide fusion (C-terminal peptide) (PSI (0-1 scale)); higher = more stable (slower turnover)
# test-settings: genetic background: cdc34-1; temperature: 37 C
Output spec: single numeric token, no unit.

[
  {
    "residue-string": "VKSAVLLFFLVT",
    "system-name": "Saccharomyces cerevisiae",
    "recorded-measurement": 0.357
  },
  {
    "residue-string": "DMWYLLWRVCYI",
    "system-name": "Saccharomyces cerevisiae",
    "recorded-measurement": 0.513
  },
  {
    "residue-string": "VLPCSLVPLRLH",
    "system-name": "Saccharomyces cerevisiae",
    "recorded-measurement": 0.66
  },
  {
    "residue-string": "GRTDFSTLLLIC",
    "system-name": "Saccharomyces cerevisiae",
    "recorded-measurement": 0.491
  },
  {
    "residue-string": "FLLLDFMLVSLV",
    "system-name": "Saccharomyces cerevisiae",
    "recorded-measurement": 0.498
  },
  {
    "residue-string": "ISSYKFLRIVLV",
    "system-name": "Saccharomyces cerevisiae",
    "recorded-measurement": 0.384
  }
]

## Task Form: Entry = "LVGVLLAVWSVV" | System = Saccharomyces cerevisiae | protein stability index = ____
## Result 0.239

## Task Form: Entry = "SRPGRWRLYYVS" | System = Saccharomyces cerevisiae | protein stability index = ____
## Result 0.687

## Task Form: Entry = "ASGVFSRLVLVS" | System = Saccharomyces cerevisiae | protein stability index = ____
## Result 0.323

###

# Tested on: Saccharomyces cerevisiae
# procedure-text: protein stability index of tFT-peptide fusion (C-terminal peptide) (PSI (0-1 scale)); higher = more stable (slower turnover)
# test-settings: genetic background: wild type; temperature: 30 C
protein stability index vs 0.7: at or above is 1.0, below is 0.0.

Example entries begin here.
[
  {
    "residue-string": "TNDSFNIVALTP [PRP19 C-terminal 12 aa]",
    "category-label": 0.0
  },
  {
    "residue-string": "DLAYQYVRALEL [SRB2 C-terminal 12 aa]",
    "category-label": 0.0
  },
  {
    "residue-string": "AIAPTSLLTPMP [YER087C-A C-terminal 12 aa]",
    "category-label": 1.0
  },
  {
    "residue-string": "VYGSERDIRAKF [TES1 C-terminal 12 aa]",
    "category-label": 1.0
  },
  {
    "residue-string": "NEKENSLSLSRL [MGT1 C-terminal 12 aa]",
    "category-label": 1.0
  },
  {
    "residue-string": "QFQTLNNLYFAQ [IME4 C-terminal 12 aa]",
    "category-label": 0.0
  },
  {
    "residue-string": "IGISPSQNKWEK [REX3 C-terminal 12 aa]",
    "category-label": 1.0
  },
  {
    "residue-string": "QLEEELMDMLDD [FCP1 C-terminal 12 aa]",
    "category-label": 0.0
  },
  {
    "residue-string": "QIFSLPAVTYNK [REC102 C-terminal 12 aa]",
    "category-label": 1.0
  },
  {
    "residue-string": "ELIISKREIEKE [GEA1 C-terminal 12 aa]",
    "category-label": 1.0
  }
]

## Task protein stability index >= 0.7 for KPTASSSRKMFR [DUO1 C-terminal 12 aa] ?
## Result 1.0

## Task protein stability index >= 0.7 for TVNLIKSQLVRG [COQ9 C-terminal 12 aa] ?
## Result 0.0

###

# System: Saccharomyces cerevisiae
# procedure-text: protein stability index of tFT-peptide fusion (C-terminal peptide) (PSI (0-1 scale)); higher = more stable (slower turnover)
# test-settings: genetic background: das1 deletion; temperature: 30 C
reported-metric: protein stability index
Output spec: single numeric token, no unit.

[
  {
    "residue-string": "DFVDMYQTEHSG [MTF1 C-terminal 12 aa]",
    "protein stability index": 0.712
  },
  {
    "residue-string": "TATSSSIILSDK [SSN2 C-terminal 12 aa]",
    "protein stability index": 0.713
  },
  {
    "residue-string": "ALLILVLGWFYR [SCS2 C-terminal 12 aa]",
    "protein stability index": 0.405
  }
]

## Task Return reported protein stability index; argument: GKQLLSPMGRAF [TKL2 C-terminal 12 aa]
## Result 0.679

## Task Return reported protein stability index; argument: QLKKSKVSVELE [MAK11 C-terminal 12 aa]
## Result 0.68

###

# Tested on: Saccharomyces cerevisiae
# procedure-text: protein stability index of tFT-peptide fusion (C-terminal peptide) (PSI (0-1 scale)); higher = more stable (slower turnover)
# test-settings: genetic background: wild type; temperature: 30 C
protein stability index vs 0.3: at or above is true (1), below is false (0).

Example entries begin here.
[
  {
    "residue-string": "FELVWLCIIGAL",
    "category-label": "false (0)"
  },
  {
    "residue-string": "VFFMFVFFPFPG",
    "category-label": "true (1)"
  },
  {
    "residue-string": "VVTLHISLFYPG",
    "category-label": "true (1)"
  },
  {
    "residue-string": "LFFASFLLIGPF",
    "category-label": "true (1)"
  },
  {
    "residue-string": "QCKHIVRKIKLH",
    "category-label": "false (0)"
  }
]

Here is the next item to consider.
## Task protein stability index >= 0.3 for "SLIFRVGKFKSL" ?
## Result false (0)

###

# Tested on: Saccharomyces cerevisiae
# procedure-text: protein stability index of tFT-peptide fusion (C-terminal peptide) (PSI (0-1 scale)); higher = more stable (slower turnover)
# test-settings: genetic background: das1 deletion; temperature: 30 C
In this section, each of the sequences is paired with its reported protein stability index.

These recorded examples may help you get a feel for the data.
[
  {
    "residue-string": "IYQPSRNRLVRY [YBR076C-A C-terminal 12 aa]",
    "system-name": "Saccharomyces cerevisiae",
    "protein stability index": 0.707
  },
  {
    "residue-string": "DGSGKYFLKHDS [KTR2 C-terminal 12 aa]",
    "system-name": "Saccharomyces cerevisiae",
    "protein stability index": 0.706
  },
  {
    "residue-string": "VEFKYPEEIFHG [TPP1 C-terminal 12 aa]",
    "system-name": "Saccharomyces cerevisiae",
    "protein stability index": 0.712
  },
  {
    "residue-string": "SHDMDFNNAGDF [HMS1 C-terminal 12 aa]",
    "system-name": "Saccharomyces cerevisiae",
    "protein stability index": 0.707
  },
  {
    "residue-string": "NYLVYHIEEENH [MNN9 C-terminal 12 aa]",
    "system-name": "Saccharomyces cerevisiae",
    "protein stability index": 0.673
  }
]

## Task Return reported protein stability index; argument: HSNTLKRKIEQV [PUS4 C-terminal 12 aa]
## Result 0.725

## Task Return reported protein stability index; argument: KWCASYSAGNRR [YLR280C C-terminal 12 aa]
## Result 0.709

## Task Return reported protein stability index; argument: VLHSIISICRIF [VPS65 C-terminal 12 aa]
## Result 0.756

## Task Return reported protein stability index; argument: LSPSYSCRYHGR [YPL152W-A C-terminal 12 aa]
## Result 0.713

## Task Return reported protein stability index; argument: KQVNEDADSDLL [KEL1 C-terminal 12 aa]
## Result 0.678

## Task Return reported protein stability index; argument: KDNSVGKILNST [BOP3 C-terminal 12 aa]
## Result 0.667

## Task Return reported protein stability index; argument: KIVIPDKFIQHI [HRD1 C-terminal 12 aa]
## Result 0.673

## Task Return reported protein stability index; argument: PYNFIQLLHQGL [HOF1 C-terminal 12 aa]
## Result 0.725

## Task Return reported protein stability index; argument: PIQDFIFNLVGE [VTC3 C-terminal 12 aa]
## Result 0.687

## Task Return reported protein stability index; argument: LEEVEVNDFIQE [SWM2 C-terminal 12 aa]
## Result 0.71

## Task Return reported protein stability index; argument: EEMIRSSSLYDE [ACA1 C-terminal 12 aa]
## Result 0.731

###

# Test system: Saccharomyces cerevisiae
# procedure-text: protein stability index of tFT-peptide fusion (C-terminal peptide) (PSI (0-1 scale)); higher = more stable (slower turnover)
# test-settings: genetic background: das1 deletion; temperature: 30 C
protein stability index vs 0.5: at or above is true (1), below is false (0).

Example entries begin here.
[
  {
    "residue-string": "CYTGYMYKLLVG",
    "category-label": "false (0)"
  },
  {
    "residue-string": "HLYCYNILLVSG",
    "category-label": "false (0)"
  },
  {
    "residue-string": "FFCFFWLFHWFG",
    "category-label": "false (0)"
  },
  {
    "residue-string": "GFGRDHGNDTGP",
    "category-label": "true (1)"
  },
  {
    "residue-string": "KLLDHFVKIRVY",
    "category-label": "false (0)"
  },
  {
    "residue-string": "VFSFWVLCEVSV",
    "category-label": "false (0)"
  },
  {
    "residue-string": "LAKPTVRKIICV",
    "category-label": "false (0)"
  },
  {
    "residue-string": "YVWPKRRGLRVA",
    "category-label": "false (0)"
  },
  {
    "residue-string": "GAQQRVKERYIE",
    "category-label": "true (1)"
  },
  {
    "residue-string": "ILFIVSSCGCVG",
    "category-label": "false (0)"
  }
]

## Task protein stability index >= 0.5 for "LCFVFVLGFFAF" ?
## Result false (0)

Reference for the values: the supplement of paper PMC10724198
